From: patent US20260184768A1

Molecular target: T1, PcrV (aa136-257).6xhis (Pseudomonas aeruginosa)
T1 chain: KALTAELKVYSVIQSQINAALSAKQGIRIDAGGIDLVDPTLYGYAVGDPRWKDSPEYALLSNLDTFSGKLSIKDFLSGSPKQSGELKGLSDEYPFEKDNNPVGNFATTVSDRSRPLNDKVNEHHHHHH
Assay: SPR (Biacore T200), mAb captured via anti-human Fc, PcrV injected, 37 C
Each entry below carries its reported Kd.
Phrase the answer as number then unit, nothing more needed.

Consider the worked cases shown below.
REGN3514 (antibody, V domains shown, also called Control I; Control I-REGN3514) VH: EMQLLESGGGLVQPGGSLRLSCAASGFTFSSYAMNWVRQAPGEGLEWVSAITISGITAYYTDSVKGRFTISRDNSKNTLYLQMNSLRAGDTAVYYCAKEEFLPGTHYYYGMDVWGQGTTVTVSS VL: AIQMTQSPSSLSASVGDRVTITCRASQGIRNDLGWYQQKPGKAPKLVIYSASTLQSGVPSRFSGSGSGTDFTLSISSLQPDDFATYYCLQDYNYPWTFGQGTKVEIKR : 2.42 nM
H1H29339P (antibody, V domains shown) VH: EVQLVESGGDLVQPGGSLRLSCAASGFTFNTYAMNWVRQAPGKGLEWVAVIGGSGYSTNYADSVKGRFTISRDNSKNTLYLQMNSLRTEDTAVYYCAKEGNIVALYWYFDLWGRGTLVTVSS VL: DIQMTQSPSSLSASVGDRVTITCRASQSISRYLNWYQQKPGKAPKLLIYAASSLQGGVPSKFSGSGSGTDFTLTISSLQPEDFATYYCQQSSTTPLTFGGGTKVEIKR : 0.186 nM

Returns the measured Kd for the input binder. Input: REGN3977 (antibody, V domains shown, also called Control III; REGN3977-Control III) VH: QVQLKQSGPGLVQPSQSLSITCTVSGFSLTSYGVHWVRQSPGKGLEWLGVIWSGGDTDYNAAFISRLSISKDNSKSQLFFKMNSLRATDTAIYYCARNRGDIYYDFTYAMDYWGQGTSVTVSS VL: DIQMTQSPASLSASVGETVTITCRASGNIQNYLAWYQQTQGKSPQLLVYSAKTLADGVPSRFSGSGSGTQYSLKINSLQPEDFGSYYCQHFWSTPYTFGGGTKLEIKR
11.4 nM
